Tested on: Staphylococcus aureus
experimentNotes: Antibacterial activity against methicillin-resistant Staphylococcus aureus 14-4 after 18 to 24 hrs
Assay type: functional
Below, each of the molecules is paired with its reported MIC value.

For orientation, consider the following solved cases.
>  <molecule>
NCC1CN(c2nc3c(cc2F)c(=O)c(C(=O)O)cn3[C@@H]2C[C@@H]2F)C/C1=N\OCc1ccc([N+](=O)[O-])cc1 (stereo partly drawn)

>  <assayReadout>
MIC

>  <assayResult>
128 µg/mL

$$$$
>  <molecule>
COc1cccc(CO/N=C2\CN(c3nc4c(cc3F)c(=O)c(C(=O)O)cn4[C@@H]3C[C@@H]3F)CC2CN)c1OC (stereo partly drawn)

>  <assayReadout>
MIC

>  <assayResult>
16 µg/mL

$$$$
>  <molecule>
NCC1CN(c2nc3c(cc2F)c(=O)c(C(=O)O)cn3[C@@H]2C[C@@H]2F)C/C1=N\OCc1ccc(Br)cc1 (stereo partly drawn)

>  <assayReadout>
MIC

>  <assayResult>
16 µg/mL

$$$$

Now examine the next entry.
// query Item NCC1CN(c2nc3c(cc2F)c(=O)c(C(=O)O)cn3[C@@H]2C[C@@H]2F)C/C1=N\OCc1ccc(Cl)cc1 (stereo partly drawn) has what recorded MIC?
// result 16 µg/mL
